- assay_system: T1, human TSLP (human, UniProt Q969D9 29-159)
- T1 construct: also called hTSLP; rhTSLP
- assay_procedure: SPR
attribute_measured: kon (M⁻¹ s⁻¹)
Field format: number, assumed M⁻¹ s⁻¹, no unit text.

Recorded results for 5 binders are shown here.
* BDG38.139 (antibody, V domains shown, IgG1) VH: QMQLVESGGGVVQPGRSLRLSCAASGFAFRTYGMHWVRQAPGKGLEWVAVIWDDGSNTHYADSVKGRFTITRDNSKNTLNLQMNSLRAEDTAVYYCVRAPQWYLSAEAFDLWGQGTMVTVSS VL: SYVLTQPPSVSVAPGETATITCGGNMIGAYLVHWYQQKPGQAPLLVIYDDVDRPARIPERFSGSNSGNTATLTISRVEAGDEADYYCQVWDHNSDHMVFGGGTKLTVL | 7.78e+06
* BDG38.137 (antibody, V domains shown, IgG1) VH: QMQLVESGGGVVQPGQSLRLSCAASGFEFRTYGMHWVRQAPGKGLEWVAVIWDDGSNTHYADSVKGRFTITRDNSKNTLNLQMNSLRAEDTAVYYCVRAPQWYLTAEAFDLWGQGTMVTVSS VL: SYVLTQPPSVSVAPGETATITCGGNLIGARLVHWYQQKPGQAPVLVIYDDSDRPSHIPERFSGSNSGNTATLTISRVEAGDEADYYCQVWDYSADTMVFGGGTKLTVL | 4.36e+06
* BDG38.132 (antibody, V domains shown, IgG1) VH: QMQLVESGGGVVQPGRSLRLSCAASGFEFRTYGMHWVRQAPGKGLEWVGVIWDDGSNTHYADSVKGRFTITRDNSKNTLNLQMNSLRAEDTAVYYCVRAPQWYLTAEAFDLWGQGTMVTVSS VL: SYILTQPPSVSVAPGETATITCGGNLIGARLVHWYQQKPGQAPVLVIYDDSDRPSRIPERFSGSNIGNTATLTISRVEAGDEADYYCQVWDYSSDHMVFGGGTKLTVL | 1.04e+07
* BDG38.129 (antibody, V domains shown, IgG1) VH: QMQLVESGGGVVQPGRSLTLSCAASGFEFRTYGMHWVRQAPGKGLEWVGVIWDDGSNTHYADSVKGRFTITRDNSKNTLNLQMNSLRVEDTAVYYCARAPQWYLTAEAFDLWGQGTMVTVSS VL: SYILTQPPSVSVAPGQTATITCGGNLIGAKLVHWYQQKPGQAPVLVIYDDSDRPSRIPERFSGSNIGNTATLTISDVEEGDEADYYCQVWDYSSDHMVFGGGTKLTVL | 4.03e+06
* BDG38.127 (antibody, V domains shown, IgG1) VH: QMQLVESGGGVVQPGRSLTLSCAASGFEFRTYGMHWVRQAPGKGLEWVGVIWYDGSATHYADSVKGRFTITRDNSKNTLNLQMNSLRAEDTAVYYCARAPQWYLTAEAFDLWGQGTMVTVSS VL: SYILTQPPSVSVAPGETATITCGGNLIGAKLVHWYQQKPGQAPVLVIYDDSDRPSRIPERFSGSNIGNTATLTISDVEAGDEADYYCQVWDYYSDTYVFGGGTKLTVL | 431000

// next item, kon requested
Exam item: Return kon for the following binder: BDG38.140 (antibody, V domains shown, IgG1) VH: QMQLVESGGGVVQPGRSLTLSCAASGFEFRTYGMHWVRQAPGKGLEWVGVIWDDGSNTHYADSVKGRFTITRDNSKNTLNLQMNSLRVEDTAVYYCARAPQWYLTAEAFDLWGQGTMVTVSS VL: SYILTQPPSVSVAPGETATITCGGNLIGAKLVHWYQQKPGQAPVLVIYDDSDRPSRIPERFSGSNIGNTATLTIEDVEAGDEADYYCQVWDYSANHMVFGGGTKLTVL
Marked response: 3.38e+06
